Where these numbers come from: patent US20200316062A1

Overview of reported IC50 across a group of compounds:
# Target or test system: Recombinant human HDAC6 (Homo sapiens)
# Construct: full length, MW=159 kDa; GST (N); made in house; host or cells: Sf9 insect cells (baculovirus)
# Sequence (Q9UBN7 whole entry): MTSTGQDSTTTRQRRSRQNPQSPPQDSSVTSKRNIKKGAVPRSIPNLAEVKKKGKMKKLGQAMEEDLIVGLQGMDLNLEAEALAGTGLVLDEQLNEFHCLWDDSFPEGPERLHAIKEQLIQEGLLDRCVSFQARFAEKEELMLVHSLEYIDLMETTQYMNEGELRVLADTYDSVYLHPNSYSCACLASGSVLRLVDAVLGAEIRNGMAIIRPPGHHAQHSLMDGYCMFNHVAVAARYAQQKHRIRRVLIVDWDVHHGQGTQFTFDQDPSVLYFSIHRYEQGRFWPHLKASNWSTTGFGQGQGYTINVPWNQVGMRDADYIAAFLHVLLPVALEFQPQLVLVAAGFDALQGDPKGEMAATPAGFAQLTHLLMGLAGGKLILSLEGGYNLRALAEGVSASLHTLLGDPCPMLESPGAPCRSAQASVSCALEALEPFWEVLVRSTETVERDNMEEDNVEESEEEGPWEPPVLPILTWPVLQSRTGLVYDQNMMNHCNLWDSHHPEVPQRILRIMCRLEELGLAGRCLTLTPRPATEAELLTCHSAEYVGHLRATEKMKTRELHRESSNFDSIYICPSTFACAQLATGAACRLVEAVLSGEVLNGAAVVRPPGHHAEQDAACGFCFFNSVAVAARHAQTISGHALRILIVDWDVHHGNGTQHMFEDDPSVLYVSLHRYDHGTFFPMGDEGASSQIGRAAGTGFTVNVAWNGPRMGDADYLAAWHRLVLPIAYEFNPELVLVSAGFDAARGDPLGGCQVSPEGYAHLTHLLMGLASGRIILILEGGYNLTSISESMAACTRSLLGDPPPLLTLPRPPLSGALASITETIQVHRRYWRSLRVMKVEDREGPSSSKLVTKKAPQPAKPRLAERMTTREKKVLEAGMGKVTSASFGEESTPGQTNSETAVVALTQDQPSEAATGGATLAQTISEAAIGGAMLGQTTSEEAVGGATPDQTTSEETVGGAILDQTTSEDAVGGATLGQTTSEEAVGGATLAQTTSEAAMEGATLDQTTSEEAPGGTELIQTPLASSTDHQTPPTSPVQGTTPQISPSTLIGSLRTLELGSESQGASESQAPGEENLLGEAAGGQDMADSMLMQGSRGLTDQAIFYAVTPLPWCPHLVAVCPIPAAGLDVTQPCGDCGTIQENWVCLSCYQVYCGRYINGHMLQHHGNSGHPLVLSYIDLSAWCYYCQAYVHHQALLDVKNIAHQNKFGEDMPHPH
# Assay procedure: HDAC biochemical assay, acetylated AMC-labeled peptide substrate
# Run parameters: read-out: IC50 (nM) HDAC 6

Smiles string | Property | Reported result
CNc1cc(-c2ccnc(N(Cc3ccc(C(=O)NO)cc3)c3cnccn3)c2)ccn1 | IC50 | ≤ 500 nM

Let us examine a further case.
INPUT: Consider the compound O=C(NO)c1ccc(CN(c2cnccn2)c2cc(-c3ccncc3)ccn2)cc1 . State its measured IC50.
OUTPUT: ≤ 500 nM
